All figures here come from patent US10323038B2.

# key: entry, value: inhibition at 1 µM
Tested Target: MAGL (Mus musculus (Mouse))
Sequence (O35678 whole entry): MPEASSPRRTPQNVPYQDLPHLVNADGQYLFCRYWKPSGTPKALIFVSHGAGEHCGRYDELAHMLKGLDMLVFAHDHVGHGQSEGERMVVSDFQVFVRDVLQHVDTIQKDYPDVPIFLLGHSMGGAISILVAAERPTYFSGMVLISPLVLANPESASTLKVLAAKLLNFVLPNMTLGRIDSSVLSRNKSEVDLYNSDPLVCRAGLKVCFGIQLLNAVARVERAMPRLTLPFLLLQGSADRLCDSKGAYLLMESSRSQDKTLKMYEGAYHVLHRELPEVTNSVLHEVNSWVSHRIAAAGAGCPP
Run Description: In vitro competitive activity-based protein profiling, MAGL (mouse)
Type: biochemical
Conditions Used: 1 μM, read-out: MAGL % inh. 1 μM (mouse)

As a guide, the following entries are already answered.
# Compound, Test Result
records = [
    ("CC(=O)N(C)c1cnn(C(=O)N2CC3CN(Cc4ccccc4N4CCOCC4)CC3C2)c1 (stereo not drawn)", "50 to 75%"),
    ("CC(=O)N(C)c1cnn(C(=O)N2CCN(Cc3ccc(C(F)(F)F)cc3)CC2)c1", "≥ 75%"),
    ("CC(=O)N(C)c1cnn(C(=O)N2CC3(CCN(Cc4ccc(-c5ccccc5)cc4C)CC3)C2)c1", "0 to 25%"),
    ("CC(=O)N(C)c1cnn(C(=O)N2CC3CN(Cc4ccc(N5CCOCC5)cc4)CC3C2)c1 (stereo not drawn)", "0 to 25%"),
    ("CC(=O)N(C)c1cnn(C(=O)N2CC3(CCN(Cc4ccc(C(F)(F)F)cc4)CC3)C2)c1", "25 to 50%"),
]

Here is another compound to look at.
Input line: Provide value of inhibition at 1 µM for this record tested with MAGL (Mus musculus (Mouse)): CC(=O)N(C)c1cnn(C(=O)N2CC3CN(Cc4cccc(C(F)(F)F)c4)CC3C2)c1 (stereo not drawn)
Output line: ≥ 75%

----------
Tested Target: FAAH (Homo sapiens (Human))
Sequence (O00519 whole entry): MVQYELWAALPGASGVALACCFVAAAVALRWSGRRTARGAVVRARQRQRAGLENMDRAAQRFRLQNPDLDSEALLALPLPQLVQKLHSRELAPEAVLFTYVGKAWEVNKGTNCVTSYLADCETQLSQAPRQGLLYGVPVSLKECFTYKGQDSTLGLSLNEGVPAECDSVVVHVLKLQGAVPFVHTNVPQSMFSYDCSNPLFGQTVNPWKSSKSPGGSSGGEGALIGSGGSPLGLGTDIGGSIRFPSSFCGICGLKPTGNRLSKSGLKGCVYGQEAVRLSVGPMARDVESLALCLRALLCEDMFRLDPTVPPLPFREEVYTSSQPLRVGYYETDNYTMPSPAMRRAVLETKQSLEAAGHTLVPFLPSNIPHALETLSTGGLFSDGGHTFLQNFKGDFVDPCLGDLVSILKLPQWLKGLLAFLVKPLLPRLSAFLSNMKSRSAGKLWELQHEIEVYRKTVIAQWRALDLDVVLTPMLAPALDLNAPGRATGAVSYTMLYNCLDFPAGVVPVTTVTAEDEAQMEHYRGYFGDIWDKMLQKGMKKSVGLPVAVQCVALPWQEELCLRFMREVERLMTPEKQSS
Run Description: In vitro competitive activity-based protein profiling, FAAH (human)
Type: biochemical
Conditions Used: 1 μM, human proteome; read-out: FAAH % inh. 1 μM (human)
# key: entry, value: inhibition at 1 µM

As a guide, the following entries are already answered.
# Compound, Measurement Kind, Test Result
records = [
    ("CS(=O)(=O)Nc1cnn(C(=O)N2CCN(Cc3ccc(-c4nc5ccccc5o4)cc3C(F)(F)F)CC2)c1", "inhibition at 1 µM", "≥ 75%"),
    ("CS(=O)(=O)Nc1cnn(C(=O)N2CCC3(CCN(Cc4ccc(N5CCCC5)c(Cl)c4)C3)CC2)c1", "inhibition at 1 µM", "≥ 75%"),
    ("CC(=O)Nc1cnn(C(=O)N2CC3CN(Cc4cccc(Oc5ccc(Cl)cc5)c4)CC3C2)c1 (stereo not shown)", "inhibition at 1 µM", "≥ 75%"),
    ("C#Cc1ccc(CN2CCN(C(=O)n3cc(NS(C)(=O)=O)cn3)CC2)cc1", "inhibition at 1 µM", "≥ 75%"),
    ("Cc1nccn1-c1ccc(CN2CCN(C(=O)n3cc(NS(C)(=O)=O)cn3)CC2)c(C(F)(F)F)c1", "inhibition at 1 µM", "0 to 25%"),
    ("CS(=O)(=O)Nc1cnn(C(=O)N2CCN(Cc3ccc(-c4cccnn4)cc3C(F)(F)F)CC2)c1", "inhibition at 1 µM", "50 to 75%"),
]

Here is another compound to look at.
Input line: GET /values?readout=inhibition at 1 µM&item= CN(Cc1ccccc1C(F)(F)F)[C@@H]1C[C@@H]2CN(C(=O)n3cc(NS(C)(=O)=O)cn3)C[C@@H]2C1
Output line: ≥ 75%

----------
Measured IC50 on FAAH (Mus musculus (Mouse)) follows.
Sequence (O08914 whole entry): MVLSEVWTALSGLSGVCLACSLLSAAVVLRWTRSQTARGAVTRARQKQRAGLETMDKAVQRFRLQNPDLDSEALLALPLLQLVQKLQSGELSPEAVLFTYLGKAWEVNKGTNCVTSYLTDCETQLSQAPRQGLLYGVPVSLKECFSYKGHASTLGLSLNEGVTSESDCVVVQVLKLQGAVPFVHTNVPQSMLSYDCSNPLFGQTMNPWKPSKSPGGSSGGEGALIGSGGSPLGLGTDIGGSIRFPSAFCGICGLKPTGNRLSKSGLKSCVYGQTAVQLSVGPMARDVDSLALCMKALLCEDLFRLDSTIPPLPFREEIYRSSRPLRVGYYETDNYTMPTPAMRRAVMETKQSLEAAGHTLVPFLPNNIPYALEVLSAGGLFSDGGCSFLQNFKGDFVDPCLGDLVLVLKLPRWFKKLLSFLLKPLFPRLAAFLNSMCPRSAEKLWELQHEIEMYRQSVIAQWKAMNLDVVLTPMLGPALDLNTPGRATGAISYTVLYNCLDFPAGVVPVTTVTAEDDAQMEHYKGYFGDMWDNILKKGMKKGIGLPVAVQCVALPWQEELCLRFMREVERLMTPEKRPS

As a guide, the following entries are already answered.
# Molecule, IC50
rows = [
    ("CC(=O)N(C)c1cnn(C(=O)N2CCC3(CCN(Cc4cc(Cl)cc(Cl)c4)C3)C2)c1 (stereo not drawn)", "≤ 100 nM"),
    ("CC(=O)N(C)c1cnn(C(=O)N2CC3CN(Cc4cc(C(F)(F)F)cc(C(F)(F)F)c4)CC3C2)c1 (stereo not drawn)", "≤ 100 nM"),
    ("CC(=O)N(C)c1cnn(C(=O)N2CC3CN(Cc4cccc(Cl)c4Cl)CC3C2)c1 (stereo not drawn)", "≤ 100 nM"),
]

Here is another molecule to look at.
Input line: Provide value of IC50 for this record tested with FAAH (Mus musculus (Mouse)): CC(=O)N(C)c1cnn(C(=O)N2CC3CN(Cc4cccc(Oc5ccc(Cl)cc5)c4)CC3C2)c1 (stereo not drawn)
Output line: ≤ 100 nM
